Assay notes: Selectivity index, ratio of CC50 for MDCK cells to IC50 for influenza A virus A/hanfang/359/95 (H3N2)
Assay type: toxicity
Recorded conditions: dog, read-out: Ratio CC50/IC50
Measured parameter: selectivity ratio
Just the number, please.

Challenge: Need selectivity ratio, item `O=C(CCC[C@@H]1[C@H]2CCCN3CCC[C@@H](CN1S(=O)(=O)c1cccc(C(F)(F)F)c1)[C@@H]23)OCC12CC3CC(CC(C3)C1)C2`
Response given: 9.31

====

Assay notes: Cytotoxicity against MDCK cells measured after 3 days by MTT assay
Format: toxicity, cell-based, Canis lupus familiaris
Recorded conditions: dog, time 3 day
Measured parameter: CC50 at 72 h (µM)
Numbers only; they are read as µM.

Challenge: // query CC50 at 72 h value for entry `CC[C@@H](C(=O)[C@@H](C)[C@@H](O)[C@H](C)[C@@H]1O[C@@H]([C@@H](CC)C(=O)O)CC[C@@H]1C)[C@H]1O[C@]2(C=C[C@@H](O)[C@]3(CC[C@@](C)([C@H]4CC[C@](O)(CC)[C@H](C)O4)O3)O2)[C@H](C)C[C@@H]1C`
Response given: 35.6

====

# key: entry, value: pIC50
Test system: Matrix protein 2 (Influenza A virus)
Sequence (P06821 whole entry): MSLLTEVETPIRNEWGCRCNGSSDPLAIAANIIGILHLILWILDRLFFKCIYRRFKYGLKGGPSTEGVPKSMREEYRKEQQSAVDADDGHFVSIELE
Assay type: cell-based, A/Udorn/72, Oocyte
pIC50 is defined as minus the log10 of a concentration measured in mol/L.

INSERT INTO results (compound, test_value) VALUES
  ('CC(N)C1CCC2(CCCCC2)CC1 (stereo not drawn)', 4.80),
  ('NCC1CCC2(CCCCC2)CC1', 5.05),
  ('NC1CCC2(CCCC2)CC1', 5.48),
  ('NC1CCC2(CCCCC2)CC1', 4.90),
  ('C1CCC2(CC1)CCNCC2', 6.05);

Challenge: Given NC1CCCC2(CCCCC2)CC1 (stereo not drawn) , state its recorded pIC50.
Response given: 4.88

Challenge: Would you mind telling me what pIC50 value was observed for NC1CCCC2(CCCCCC2)CC1 (stereo not drawn) ?
Response given: 5.06

Challenge: Would you mind telling me what pIC50 value was observed for `NC1CCC2(CCCCCC2)CC1` ?
Response given: 4.89

====

Assay notes: Cytotoxicity against MDCK cells
Assay type: toxicity, cell-based, Canis lupus familiaris
Recorded conditions: dog
Measured parameter: CC50 (µg/mL)
Respond with the bare value in µg/mL.

Challenge: Entry CC(NC(=O)c1csc(CN)n1)C12CC3CC(CC(C3)C1)C2 (configuration not stated) : reported CC50 = ?
Response given: 50

====

# reported pIC50; entries follow
Test system: Matrix protein 2 (Influenza A virus)
Type: cell-based, Oocyte
Conceptually, pIC50 converts a concentration in mol/L into minus its log10.

// solved cases for pIC50 follow
INSERT INTO results (structure_string, measured_parameter, test_value) VALUES
  ('C[Si]1(C)CCC(N)CC1', 'pIC50', 5.59),
  ('C[Si]1(C)CCCNCC1', 'pIC50', 4.71);

Okay, next one:
Challenge: // pIC50 lookup, key: `NC1CC[Si]2(CCCC2)CC1`
Response given: 5.11
